Tested on: CESS (Acute Myeloid Leukemia)
assay method text: combination Emax (second highest fraction inhibited in the dose matrix, 72 h); higher = more inhibition; extreme values may be limits of the assay
measurement label: combination Emax
The response must contain the number and no unit.

# lookup: combination Emax of C=CCn1c(=O)c2cnc(Nc3ccc(N4CCN(C)CC4)cc3)nc2n1-c1cccc(C(C)(C)O)n1 [AZD1775] + O=C(c1cc(Cc2n[nH]c(=O)c3ccccc23)ccc1F)N1CCN(C(=O)C2CC2)CC1 [Olaparib] (first compound max 1 µM, partner max 10 µM) 0.916

# lookup: combination Emax of NC1(C(=O)N[C@@H](CCO)c2ccc(Cl)cc2)CCN(c2ncnc3[nH]ccc23)CC1 [Capivasertib] + COc1nnc2ccc(N3CCC(c4ccc(OCCN5CCN(C)C(=O)[C@H]5C)cc4)CC3)nn12 [AZD5153] (first compound max 10 µM, 7x7, partner max 1 µM) 0.747

# lookup: combination Emax of COc1nnc2ccc(N3CCC(c4ccc(OCCN5CCN(C)C(=O)[C@H]5C)cc4)CC3)nn12 [AZD5153] + Cc1c2c(nn1C)CSCc1cc(n(C)n1)CSc1cc(c3ccccc3c1)OCCCc1c(C(=O)O)n(C)c3c-2c(Cl)ccc13 [AZD5991] (first compound max 1 µM, 7x7, partner max 1 µM) 0.76

# lookup: combination Emax of COc1nnc2ccc(N3CCC(c4ccc(OCCN5CCN(C)C(=O)[C@H]5C)cc4)CC3)nn12 [AZD5153] + C[C@@H]1COCCN1C2=NC(=NC(=C2)C3(CC3)[S@](=N)(=O)C)C4=C5C=CNC5=NC=C4 [AZD6738] (first compound max 1 µM, 7x7, partner max 10 µM) 0.905

All values here come from the supplement of paper PMC11061612.
